assay: The drug is tested on Bifidobacterium longum subsp. Infantis strain: CCUG52486 for biotransformation. The drug concentrations were measured before and after a 12-h incubation by liquid-chromatography-coupled mass spectrometry (LC–MS); conditions: 2 µM
metricName: Bacterial Biotransformation

compound="COc1ccccc1OCC(O)CN1CCN(CC(=O)Nc2c(C)cccc2C)CC1 (stereo not drawn)" testresult="Compound NOT metabolized"
compound=O=C(O)CCc1nc(-c2ccccc2)c(-c2ccccc2)o1 testresult="Compound NOT metabolized"
compound="CCN(CC)CCOCCOC(=O)C1(c2ccccc2)CCCC1.O=C(O)CC(O)(CC(=O)O)C(=O)O [CARBETAPENTANE CITRATE]" testresult="Compound metabolized"
compound="COc1c(C)c2c(c(O)c1C/C=C(\\C)CCC(=O)OCCN1CCOCC1)C(=O)OC2 [MYCOPHENOLATE MOFETIL]" testresult="Compound metabolized"

-- ask What value of measured Bacterial Biotransformation is listed for CNNCc1ccc(C(=O)NC(C)C)cc1 ?
-- reply Compound NOT metabolized

-- ask Queued: CN1CCc2cccc3c2[C@H]1Cc1ccc(O)c(O)c1-3
-- reply Compound NOT metabolized

-- ask Queued: CC(C)OC(=O)C(C)(C)Oc1ccc(C(=O)c2ccc(Cl)cc2)cc1 [FENOFIBRATE]
-- reply Compound NOT metabolized

-- ask Queued: OCCN1CCN(CCCN2c3ccccc3Sc3ccc(C(F)(F)F)cc32)CC1
-- reply Compound NOT metabolized

-- ask Queued: Cc1nc(Nc2ncc(C(=O)Nc3c(C)cccc3Cl)s2)cc(N2CCN(CCO)CC2)n1.O
-- reply Compound NOT metabolized

-- ask Queued: CC(C)(C)NC[C@H](O)COc1nsnc1N1CCOCC1.O=C(O)/C=C\C(=O)O [TIMOLOL MALEATE]
-- reply Compound NOT metabolized

-- ask Queued: CN1CCN(C(=O)O[C@H]2c3nccnc3C(=O)N2c2ccc(Cl)cn2)CC1
-- reply Compound metabolized

-- ask Queued: CCN1CCCC1CNC(=O)c1cc(S(N)(=O)=O)ccc1OC (stereo not drawn) [SULPIRIDE]
-- reply Compound NOT metabolized

-- ask Queued: COc1ccccc1OCCNCC(O)COc1cccc2[nH]c3ccccc3c12 (stereo not drawn)
-- reply Compound NOT metabolized

-- ask Queued: CCOc1cc(CC(=O)N[C@@H](CC(C)C)c2ccccc2N2CCCCC2)ccc1C(=O)O [REPAGLINIDE]
-- reply Compound NOT metabolized

-- ask Queued: Cc1ccnc2c1NC(=O)c1cccnc1N2C1CC1
-- reply Compound NOT metabolized

-- ask Queued: NC(=O)N1c2ccccc2CC(=O)c2ccccc21 [OXCARBAZEPINE]
-- reply Compound metabolized

-- ask Queued: CC(Oc1c(Cl)cccc1Cl)C1=NCCN1 (stereo not drawn)
-- reply Compound metabolized

-- ask Queued: OCCN(CCO)c1nc(N2CCCCC2)c2nc(N(CCO)CCO)nc(N3CCCCC3)c2n1
-- reply Compound NOT metabolized

* * *

assay: The drug is tested on Bacteroides dorei strain: DSM17855 for biotransformation. The drug concentrations were measured before and after a 12-h incubation by liquid-chromatography-coupled mass spectrometry (LC–MS); conditions: phocaeicola dorei, 2 µM
metricName: Bacterial Biotransformation

// worked examples, Bacterial Biotransformation included
molecule="CCC(COC(=O)c1cc(OC)c(OC)c(OC)c1)(c1ccccc1)N(C)C.O=C(O)/C=C\\C(=O)O (centres undefined)" metricname="Bacterial Biotransformation" testresult="Compound metabolized"
molecule="CN1CCN2c3ccccc3Cc3ccccc3C2C1 (centres undefined) [MIANSERIN]" metricname="Bacterial Biotransformation" testresult="Compound NOT metabolized"
molecule=CN1CCC(OC(c2ccccc2)c2ccccc2)CC1 metricname="Bacterial Biotransformation" testresult="Compound NOT metabolized"
molecule="COc1ccccc1OCC(O)CN1CCN(CC(=O)Nc2c(C)cccc2C)CC1 (centres undefined) [RANOLAZINE]" metricname="Bacterial Biotransformation" testresult="Compound NOT metabolized"
molecule="O=C(O)c1cc(/N=N/c2ccc(S(=O)(=O)Nc3ccccn3)cc2)ccc1O [SULFASALAZINE]" metricname="Bacterial Biotransformation" testresult="Compound metabolized"

Now turn to the next molecule.
-- ask What value of measured Bacterial Biotransformation is listed for C=CCN1CC[C@]23c4c5ccc(O)c4O[C@H]2C(=O)CC[C@@]3(O)[C@H]1C5 [NALOXONE] ?
-- reply Compound metabolized

* * *

test: The drug is tested on Anaerococcus hydrogenalis strain: DSM7454 for biotransformation. The drug concentrations were measured before and after a 12-h incubation by liquid-chromatography-coupled mass spectrometry (LC–MS); conditions: 2 µM
metricName: Bacterial Biotransformation

// worked examples, Bacterial Biotransformation included
compound=C[C@@H]1C[C@H]2[C@@H]3CCC4=CC(=O)C=C[C@]4(C)[C@@]3(F)[C@@H](O)C[C@]2(C)[C@@]1(O)C(=O)CO metricname="Bacterial Biotransformation" testresult="Compound NOT metabolized"
compound="O=C1CN2Cc3c(ccc(Cl)c3Cl)N=C2N1 [ANAGRELIDE]" metricname="Bacterial Biotransformation" testresult="Compound NOT metabolized"
compound=CCCCCOC(=O)Nc1nc(=O)n([C@@H]2O[C@H](C)[C@@H](O)[C@H]2O)cc1F metricname="Bacterial Biotransformation" testresult="Compound NOT metabolized"
compound=CC(=O)OCC(=O)[C@@]12N=C(C)O[C@@H]1C[C@H]1[C@@H]3CCC4=CC(=O)C=C[C@]4(C)[C@H]3[C@@H](O)C[C@@]12C metricname="Bacterial Biotransformation" testresult="Compound metabolized"
compound="CCN(CC)CCOC(=O)C(Cc1cccc2ccccc12)CC1CCCO1.O=C(O)C(=O)O (stereo not drawn) [NAFRONYL OXALATE]" metricname="Bacterial Biotransformation" testresult="Compound NOT metabolized"
compound="O=C1N=C([O-])NC1(c1ccccc1)c1ccccc1.[Na+] [PHENYTOIN SODIUM]" metricname="Bacterial Biotransformation" testresult="Compound NOT metabolized"
compound="CCN(CC)CCOCCOC(=O)C1(c2ccccc2)CCCC1.O=C(O)CC(O)(CC(=O)O)C(=O)O [CARBETAPENTANE CITRATE]" metricname="Bacterial Biotransformation" testresult="Compound metabolized"

Now turn to the next compound.
-- ask What value of measured Bacterial Biotransformation is listed for O=C(O)COCCN1CCN(C(c2ccccc2)c2ccc(Cl)cc2)CC1 (stereo not drawn) ?
-- reply Compound NOT metabolized

* * *

experiment: The drug is tested on Bacteroides uniformis strain: ATCC8492 for biotransformation. The drug concentrations were measured before and after a 12-h incubation by liquid-chromatography-coupled mass spectrometry (LC–MS); conditions: 2 µM
metricName: Bacterial Biotransformation

compound=O=C([O-])C[C@H](O)C[C@H](O)/C=C/c1c(C2CC2)nc2ccccc2c1-c1ccc(F)cc1.O=C([O-])C[C@H](O)C[C@H](O)/C=C/c1c(C2CC2)nc2ccccc2c1-c1ccc(F)cc1.[Ca+2] metricname="Bacterial Biotransformation" testresult="Compound NOT metabolized"
compound=CC(=O)OCC(=O)[C@@]12N=C(C)O[C@@H]1C[C@H]1[C@@H]3CCC4=CC(=O)C=C[C@]4(C)[C@H]3[C@@H](O)C[C@@]12C metricname="Bacterial Biotransformation" testresult="Compound metabolized"
compound="CC(CN1c2ccccc2Sc2ccccc21)N(C)C (configuration not stated)" metricname="Bacterial Biotransformation" testresult="Compound NOT metabolized"
compound="CN(C)CC(c1ccc(O)cc1)C1(O)CCCCC1.O=C(O)CCC(=O)O (configuration not stated) [DESVENLAFAXINE SUCCINATE]" metricname="Bacterial Biotransformation" testresult="Compound NOT metabolized"
compound="CC(C)(C(=O)O)c1ccc(C(O)CCCN2CCC(C(O)(c3ccccc3)c3ccccc3)CC2)cc1 (configuration not stated) [FEXOFENADINE]" metricname="Bacterial Biotransformation" testresult="Compound NOT metabolized"
compound="COCCCC/C(=N\\OCCN)c1ccc(C(F)(F)F)cc1.O=C(O)/C=C\\C(=O)O [FLUVOXAMINE MALEATE]" metricname="Bacterial Biotransformation" testresult="Compound NOT metabolized"

Now turn to the next compound.
-- ask What value of measured Bacterial Biotransformation is listed for CN1CCC[C@@H]1CCO[C@](C)(c1ccccc1)c1ccc(Cl)cc1.O=C(O)/C=C/C(=O)O [CLEMASTINE FUMARATE] ?
-- reply Compound metabolized

* * *

details: bacteroides fragilis, 12 h, 2 µM
Description: The drug is tested on Bacteroides fragilis strain: 3397 (T10) for biotransformation. The drug concentrations were measured before and after a 12-h incubation by liquid-chromatography-coupled mass spectrometry (LC–MS)
Non-standard residues stand in square brackets, D forms with d. Residues, ends and D or L forms follow the SMILES beside them. pGlu = O=C1CC[C@@H](C(=O)O)N1; Thz = O=C(O)[C@@H]1CSCN1
metricName: Bacterial Biotransformation

// worked examples, Bacterial Biotransformation included
compound="COc1cc(C(=O)NCc2ccc(OCCN(C)C)cc2)cc(OC)c1OC [TRIMETHOBENZAMIDE]" testresult="Compound NOT metabolized"
compound=CN/C(=N/CCSCc1nc[nH]c1C)NC#N testresult="Compound metabolized"
compound=CN1CCc2cccc3c2[C@H]1Cc1ccc(O)c(O)c1-3 testresult="Compound NOT metabolized"
compound=CCc1nc(N)nc(N)c1-c1ccc(Cl)cc1 testresult="Compound NOT metabolized"
compound="O=C(O)CCC(=O)O.O=C(O[C@H]1CN2CCC1CC2)N1CCc2ccccc2[C@@H]1c1ccccc1 [SOLIFENACIN SUCCINATE]" testresult="Compound NOT metabolized"
compound="CC(=O)OCC(=O)NCCCOc1cccc(CN2CCCCC2)c1 [ROXATIDINE ACETATE]" testresult="Compound metabolized"

-- ask What value of measured Bacterial Biotransformation is listed for CCN(CC)CCNC(=O)c1ccc(NC(C)=O)cc1 [ACECAINIDE] ?
-- reply Compound NOT metabolized

-- ask Queued: COc1ccccc1OCC(O)COC(N)=O (centres undefined)
-- reply Compound NOT metabolized

-- ask Queued: CN1[C@@H]2CC[C@H]1C[C@@H](OC(=O)c1c[nH]c3ccccc13)C2
-- reply Compound NOT metabolized

-- ask Queued: CC(C)(C)NCC(O)COc1cccc2c1CC(O)C(O)C2 (centres undefined)
-- reply Compound NOT metabolized

-- ask Queued: N#Cc1ccc2c(c1)N(CCCN1CCC(O)CC1)c1ccccc1S2
-- reply Compound metabolized

-- ask Queued: Cc1ccc(S(=O)(=O)NC(=O)NN2CC3CCCC3C2)cc1 (centres undefined) [GLICLAZIDE]
-- reply Compound metabolized

-- ask Queued: O=C1CC[C@@H](C(=O)N2CSC[C@H]2C(=O)O)N1 [PIDOTIMOD] ([pGlu]-[Thz]-OH)
-- reply Compound metabolized
